# Tested on: Aβ42
# METHOD DESCRIPTION: Screening for γ-secretase-modulating activity: Aβ42 in supernatant of SKNBE2 cells carrying APP 695-wild type (Alphalisa)
# Format: cell-based
# CONDITIONS: Homo sapiens, overnight incubation, cell supernatant
MEASURE NAME: pIC50
As a rule, pIC50 stands for the negative log10 of the concentration, concentration in M.

The cases that follow already have their pIC50 on record.
- COMPOUND: "COc1ccc(N2CCN(c3nc(Nc4cccc(F)c4C(F)(F)F)n(C)n3)CC2(C)C)cc1 [Compound 3]"
  pIC50: 7.30
- COMPOUND: "Cc1cc(OC2CCN(c3nc(Nc4cc(C(F)(F)F)ccc4F)n(C)n3)CC2)ncn1 [Compound 8]"
  pIC50: 6.02

Alright, here's another compound for you.
Specify pIC50 for COc1ccc(N2CCN(c3nc(Nc4ccccc4C)n(C)n3)CC2(C)C)cc1 [Compound 1] , system Aβ42.
7.30

###

# System: Aβ42
# METHOD DESCRIPTION: Screening for γ-secretase-modulating activity: Aβ42 in supernatant of SKNBE2 cells carrying APP 695-wild type (Alphalisa)
# Format: cell-based
# CONDITIONS: Homo sapiens, overnight incubation, cell supernatant
MEASURE NAME: pIC50
As a rule, pIC50 stands for the negative log10 of the concentration, concentration in M.

The cases that follow already have their pIC50 on record.
- COMPOUND: "COc1ccc(N2CCN(c3nc(Nc4ccc(F)cc4C)n(C)n3)CC2(C)C)cc1 [Compound 6]"
  SYSTEM TESTED: "Aβ42"
  pIC50: 7.30
- COMPOUND: "COc1ccc(N2CCN(c3nc(Nc4ccccc4C(F)(F)F)n(C)n3)CC2(C)C)cc1 [Compound 2]"
  SYSTEM TESTED: "Aβ42"
  pIC50: 7.05
- COMPOUND: "Cn1nc(N2CCN(c3ccncc3)CC2)nc1Nc1cc(C(F)(F)F)ccc1F [Compound 10]"
  SYSTEM TESTED: "Aβ42"
  pIC50: 5.31

Alright, here's another compound for you.
Specify pIC50 for COc1ccc(N2CCN(c3nc(Nc4cccc(OC(F)(F)F)c4)n(C)n3)CC2(C)C)cc1 [Compound 4] , system Aβ42.
7.15
